- System: U251 CNS
- assay.notes: NCI-60 one-dose screen, 48 h (100 = growth as untreated, 0 = no growth, -100 = all killed)
- condition.notes: 10 µM unless noted
The panel holds about 83,000 compounds, 20% with a hit somewhere; the sample as a whole holds those more often.
observable: growth (%)
Report the figure in % without appending any unit label.

What value of growth has been reported for the following compound? "CNC(=O)c1cc(Oc2ccc(NC(=O)Nc3cc(C(C)(C)C)nn3-c3ccc4ncccc4c3)c(F)c2)ccn1"
-21.7

What value of growth has been reported for the following compound? "Cc1ccc(F)c(NC(=O)Nc2ccc(-c3cccc4[nH]nc(N)c34)cc2)c1"
12.9

What value of growth has been reported for the following compound? "NC1(C(=O)N[C@@H](CCO)c2ccc(Cl)cc2)CCN(c2ncnc3[nH]ccc23)CC1"
34.6

What value of growth has been reported for the following compound? "CN1CCN(Cc2ccc(NC(=O)c3[nH]ncc3Nc3ncnc4sc5c(c34)CCCC5)cc2)CC1"
-84.2

What value of growth has been reported for the following compound? "CCCCN1C(=O)c2cccc3c(-c4ccc5c(c4)ncn5C4CCCCC4)ccc(c23)C1=O"
98.3

What value of growth has been reported for the following compound? "O=C(Cc1ccc(/C=C/C(=O)c2ncc[nH]2)cc1)Nc1ccc(S(F)(F)(F)(F)F)cc1"
37

What value of growth has been reported for the following compound? "Cc1cc(N(CCNc2ccnc3cc(Cl)ccc23)Cc2ccc3c(c2)OCO3)nc(N2CCCC2)n1"
-17.6

What value of growth has been reported for the following compound? "CCCCn1c(C)nc2cc(Nc3nc(N4CCCCC4)nc4nc[nH]c34)ccc21"
58.5

What value of growth has been reported for the following compound? COC(=O)CNC(=O)[C@@H](OC)[C@@H]1Cc2cc3cc(OC4CC(OC5CC(O)C(O)C(C)O5)C(O)C(C)O4)c(C)c(O)c3c(O)c2C(=O)[C@H]1OC1CC(OC2CC(OC3CC(C)(O)C(O)C(C)O3)C(O)C(C)O2)C(O)C(C)O1 (stereo partly drawn)
9.93

What value of growth has been reported for the following compound? "ClCc1ccc(-c2ccc(Cn3cnc4c(Cl)nc(Cl)nc43)cc2)cc1"
-79.2

What value of growth has been reported for the following compound? "CCc1nc2cc(/C=C/C(=O)NO)ccc2c(=O)n1CCc1ccc(F)cc1"
-20.8

What value of growth has been reported for the following compound? CC(C)C1CCC(C)C(C2(C#N)C(N)=NC(N)=C2C#N)C1=O (stereo not drawn)
99.7

What value of growth has been reported for the following compound? "O=C(NO)c1ccc(Cn2c(=O)n(-c3ccccc3F)c(=O)c3ccccc32)cc1"
-85.3

What value of growth has been reported for the following compound? O=C1CSC(c2c(F)cccc2Cl)N1NC(=O)C(O)(c1ccccc1)c1ccccc1 (stereo not drawn)
95.7

What value of growth has been reported for the following compound? "O=C(Cc1ccc(/C=C/C(=O)c2ncc[nH]2)cc1)Nc1ccc(Br)cc1"
-63.5

What value of growth has been reported for the following compound? CC(=O)OC1Oc2ccccc2-c2oc(=O)c(-c3cc4ccc(N(C)C)cc4oc3=O)cc21 (stereo not drawn)
48.3

What value of growth has been reported for the following compound? "Cn1ccnc1C(=O)/C=C/c1ccc(CC(=O)Nc2ccc(Br)cc2)cc1"
5.83

What value of growth has been reported for the following compound? Cc1cc(O)c2c(c1)C1OC(=O)CCCCCN1C1=C2C(=O)c2cccc(OC3CC(O)C(O)C(C)O3)c2C1=O (stereo not drawn)
63.1

src = PubChem BioAssay (NCI)
